Origin of the recorded values: paper PMC3750009

Target: cruzain (Trypanosoma cruzi, UniProt P25779)
Construct: Recombinant cruzain enzyme was expressed and purified as previously described
Sequence (P25779 123-337 limits assumed): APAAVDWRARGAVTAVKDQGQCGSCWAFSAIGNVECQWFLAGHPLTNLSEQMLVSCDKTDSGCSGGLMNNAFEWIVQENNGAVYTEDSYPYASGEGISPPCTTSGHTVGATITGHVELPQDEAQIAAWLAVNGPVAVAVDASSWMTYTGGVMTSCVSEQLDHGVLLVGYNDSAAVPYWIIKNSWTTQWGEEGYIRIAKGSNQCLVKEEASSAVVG
Assay: cruzain enzyme assay, IC50 determination (Z-FR-MCA fluorescence)
Details: Neq42 analogs, SAR; unit inferred; read-out: IC50, cruzain inhibition (Figure 6)
METRIC NAME: IC50 (µM)
Answers are plain numbers, in µM.

Study these solved cases before continuing.
{"COMPOUND": "CC(Sc1nncn1-c1ccccc1)C(=O)Nc1sccc1C(N)=O (centres unmarked) [Neq177]", "STUDY SYSTEM": "cruzain (Trypanosoma cruzi, UniProt P25779)", "RESULT UNITS": "µM", "READOUT NUMBER": 48.9}
{"COMPOUND": "Cc1nnc(SCC(=O)Nc2sccc2C(N)=O)n1Cc1ccccc1 [Neq165]", "STUDY SYSTEM": "cruzain (Trypanosoma cruzi, UniProt P25779)", "RESULT UNITS": "µM", "READOUT NUMBER": 31.3}
{"COMPOUND": "NC(=O)c1ccsc1NC(=O)CSc1nnc(CN2CCCCC2)n1Cc1ccccc1 [Neq42]", "STUDY SYSTEM": "cruzain (Trypanosoma cruzi, UniProt P25779)", "RESULT UNITS": "µM", "READOUT NUMBER": 21.6}
{"COMPOUND": "NC(=O)c1ccsc1NC(=O)COC(=O)[C@@H](Cc1ccccc1)NC(=O)OCc1ccccc1 [Neq172]", "STUDY SYSTEM": "cruzain (Trypanosoma cruzi, UniProt P25779)", "RESULT UNITS": "µM", "READOUT NUMBER": 73.1}

Could you now consider this next compound?
Input NC(=O)c1ccsc1NC(=O)CSc1nnc[nH]1 [Neq176] . Output IC50: 68.5

----------
Assay: mammalian cell cytotoxicity, propidium iodide flow cytometry
Type: cell-based, mice
Details: C57BL/6, mouse, primary spleen cells, mouse spleen cells, 24 h; read-out: Cytotoxic IC50
Could you please report measured IC50 at 24 h for the items listed next?

Study these solved cases before continuing.
{"COMPOUND": "NC(=O)c1ccsc1NC(=O)CSc1nnc[nH]1", "RESULT": "> 250 µM"}
{"COMPOUND": "O=C(Cn1ccnc1[N+](=O)[O-])NCc1ccccc1 [Bz, N-benzyl-2-nitro-1-imidazolacetamide, reference compound]", "RESULT": "> 500 µM"}

Could you now consider this next compound?
Input CC(Sc1nncn1-c1ccccc1)C(=O)Nc1sccc1C(N)=O (stereo not drawn) . Output IC50 at 24 h: > 250 µM
